System Name: ESR1 (estrogen receptor 1) (Homo sapiens)
Construct: expressed in transfected cells; host or cells: HepG2
Test: ATG_ERE_CIS: Factorial reporter gene assay (HepG2)
Type: cell-based
Experimental Conditions: HepG2; scale not given, looks like -log10 of molar active concentration; 0 = no activity
Measured Property: ATG_ERE_CIS
# respond with the number and nothing more

>>> measured("CCCCOCN(C(=O)CCl)c1c(CC)cccc1CC [r46]")
0
>>> measured("CCSC(=O)N(CC(C)C)CC(C)C [r49]")
0
>>> measured("C=CCOC(=O)C(C)(C)OC(=O)c1cc(-n2c(=O)cc(C(F)(F)F)n(C)c2=O)ccc1Cl [r47]")
0
>>> measured("CC(C)OC(=O)Nc1cccc(Cl)c1 [r59]")
0
>>> measured("CNC(=O)Oc1cccc2ccccc12 [r52]")
4.244

[in] Given the entry O=C1C2CC=CCC2C(=O)N1SC(Cl)(Cl)Cl (stereo not drawn) [r51] , report its measured ATG_ERE_CIS.
[out] 0

[in] ATG_ERE_CIS lookup needed for Nc1cnn(-c2ccccc2)c(=O)c1Cl [r56] , thanks.
[out] 0

[in] Entry O=C(Nc1ccccc1-c1ccc(Cl)cc1)c1cccnc1Cl [r42] has what ATG_ERE_CIS?
[out] 0

[in] Which ATG_ERE_CIS is reported for this molecule? CCC(C)Nc1c([N+](=O)[O-])cc(C(C)(C)C)cc1[N+](=O)[O-] (stereo not drawn) [r48]
[out] 0

[in] Can you look up the measured ATG_ERE_CIS of N#Cc1cc(Br)c(O)c(Br)c1 [r44] for me?
[out] 0

[in] Item under review: CC(C)N1C(=O)N(c2ccccc2)CS/C1=N\C(C)(C)C [r45] . Reported ATG_ERE_CIS?
[out] 0

[in] Form field: reported ATG_ERE_CIS of OB(O)O [r41]
[out] 0

---

System Name: PPARG (peroxisome proliferator-activated receptor gamma) (Homo sapiens)
Construct: expressed in transfected cells; host or cells: HepG2
Sequence (P37231 whole entry): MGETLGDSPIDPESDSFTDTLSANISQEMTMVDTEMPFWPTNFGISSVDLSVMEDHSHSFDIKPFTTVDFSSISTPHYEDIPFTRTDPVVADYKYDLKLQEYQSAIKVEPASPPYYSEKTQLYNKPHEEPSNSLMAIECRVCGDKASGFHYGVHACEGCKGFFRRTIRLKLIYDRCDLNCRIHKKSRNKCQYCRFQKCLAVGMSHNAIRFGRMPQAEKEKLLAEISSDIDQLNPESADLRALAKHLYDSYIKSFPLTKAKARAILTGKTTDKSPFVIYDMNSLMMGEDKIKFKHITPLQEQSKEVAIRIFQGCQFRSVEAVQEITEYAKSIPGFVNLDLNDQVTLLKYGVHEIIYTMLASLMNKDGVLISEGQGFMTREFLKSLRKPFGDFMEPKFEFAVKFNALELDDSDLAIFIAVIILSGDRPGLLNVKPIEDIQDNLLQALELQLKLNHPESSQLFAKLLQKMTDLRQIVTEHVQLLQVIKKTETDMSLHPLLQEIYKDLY
Test: ATG_PPARg_TRANS: Factorial reporter gene assay (HepG2)
Assay type: cell-based
Experimental Conditions: HepG2
Measured Property: ATG_PPARg_TRANS
Just the number, please, no unit attached.

Consider the following illustrative entries.
>>> measured("C#CCC1=C(C)[C@H](OC(=O)[C@H]2[C@H](C=C(C)C)C2(C)C)CC1=O")
4.357
>>> measured("CSc1nc(NC(C)C)nc(NC(C)C)n1")
4.284
>>> measured("S=C([S-])NCCNC(=S)[S-].[Zn+2]")
4.409
>>> measured("CN=C=S")
4.215
>>> measured("CCC(=O)C1C(=O)CC(C(=O)[O-])CC1=O.CCC(=O)C1C(=O)CC(C(=O)[O-])CC1=O.[Ca+2] (stereo not drawn)")
4.409

Then there is this compound:
[in] // lookup ATG_PPARg_TRANS | system=PPARG (peroxisome proliferator-activated receptor gamma) (Homo sapiens) | key= CCN(CC)C(=O)C(C)Oc1cccc2ccccc12 (stereo not drawn)
[out] 4.301

---

Tested on: SR (steroid receptor-like)
Test: Aggregate nuclear receptor activity: SR
Experimental Conditions: aggregate human NR activity, in words
Measured Property: activity with SR

>>> measured("CC(C)Oc1cc(-n2nc(C(C)(C)C)oc2=O)c(Cl)cc1Cl [Oxadiazon]")
"less frequently"
>>> measured("CCOC(=O)C(C)OC(=O)c1cc(Oc2ccc(C(F)(F)F)cc2Cl)ccc1[N+](=O)[O-] (stereo not shown) [Lactofen]")
"less frequently"
>>> measured("N#Cc1c[nH]cc1-c1cccc2c1OC(F)(F)O2 [Fludioxonil]")
"less frequently"
>>> measured("CCOC(=O)CC(SP(=S)(OC)OC)C(=O)OCC (stereo not shown) [Malathion]")
"some activity"
>>> measured("COC(=O)C(C)Oc1ccc(Oc2ccc(Cl)cc2Cl)cc1 (stereo not shown) [Diclofop-methyl]")
"some activity"

[in] Provide value of activity with SR for this record tested with SR (steroid receptor-like): C=CC1(C)OC(=O)N(c2cc(Cl)cc(Cl)c2)C1=O (stereo not shown) [Vinclozolin]
[out] some activity

[in] Quick check: activity with SR on SR (steroid receptor-like), item C=CCOC(Cn1ccnc1)c1ccc(Cl)cc1Cl (stereo not shown) [Imazalil] ?
[out] some activity

---

System: CYP2B6
Test: CLZD_CYP2B6: Change in expression of CYP2B6 (primary human hepatocytes)
Format: cell-based
Experimental Conditions: 24 hr, scale not given, looks like -log10 of molar active concentration, 0 = no activity
Method: This is a collection of multiplexed gene expression assays focused on Phase I and II xenobiotic metabolizing enzymes and transporters. Human primary cell cultures were treated with chemicals at 5 concentrations (0.004-40 [drawing 42] M) for 6, 24 and 48 hr. Concentration- and time-response profiles of chemicals were measured by the expression of key nuclear receptor target genes, activities of CYP1A enzymes (EROD), and cell morphology. […]
List of CLZD_CYP2B6_24 values.
Reply briefly: the number, and no unit.

>>> measured("CCSC(=O)N(CC(C)C)CC(C)C [r49]")
6.583
>>> measured("CCC(C)n1c(=O)[nH]c(C)c(Br)c1=O (centres unmarked) [r43]")
4.936
>>> measured("COc1cc(Cl)c(OC)cc1Cl [r57]")
5.434
>>> measured("N#Cc1cc(Br)c(O)c(Br)c1 [r44]")
0
>>> measured("COc1nc(C)nc(NC(=O)NS(=O)(=O)c2ccccc2Cl)n1 [r63]")
0

As a next step, examine the compound that follows.
[in] What reported CLZD_CYP2B6_24 corresponds to O=C1C2CC=CCC2C(=O)N1SC(Cl)(Cl)Cl (centres unmarked) [r51] on CYP2B6?
[out] 0

---

Test system: CYP2B6
Test: CLZD_CYP2B6: Change in expression of CYP2B6 (primary human hepatocytes)
Type: cell-based
Experimental Conditions: 24 hr
Measured Property: CLZD_CYP2B6_24
Give the value as a plain number.

[in] Consider the compound shown here: COC(=O)c1ccccc1S(=O)(=O)NC(=O)Nc1nc(OC(F)F)cc(OC(F)F)n1 [r250] What is its recorded CLZD_CYP2B6_24?
[out] 5.187

[in] Bench note: what CLZD_CYP2B6_24 did O=S(=O)(O)C(F)(F)C(F)(F)C(F)(F)C(F)(F)C(F)(F)C(F)(F)C(F)(F)C(F)(F)F [r240] show?
[out] 4.97

---

System Name: ESR1 (estrogen receptor 1) (Homo sapiens, UniProt P03372)
Construct: expressed in transfected cells; host or cells: HepG2
Sequence (P03372 whole entry): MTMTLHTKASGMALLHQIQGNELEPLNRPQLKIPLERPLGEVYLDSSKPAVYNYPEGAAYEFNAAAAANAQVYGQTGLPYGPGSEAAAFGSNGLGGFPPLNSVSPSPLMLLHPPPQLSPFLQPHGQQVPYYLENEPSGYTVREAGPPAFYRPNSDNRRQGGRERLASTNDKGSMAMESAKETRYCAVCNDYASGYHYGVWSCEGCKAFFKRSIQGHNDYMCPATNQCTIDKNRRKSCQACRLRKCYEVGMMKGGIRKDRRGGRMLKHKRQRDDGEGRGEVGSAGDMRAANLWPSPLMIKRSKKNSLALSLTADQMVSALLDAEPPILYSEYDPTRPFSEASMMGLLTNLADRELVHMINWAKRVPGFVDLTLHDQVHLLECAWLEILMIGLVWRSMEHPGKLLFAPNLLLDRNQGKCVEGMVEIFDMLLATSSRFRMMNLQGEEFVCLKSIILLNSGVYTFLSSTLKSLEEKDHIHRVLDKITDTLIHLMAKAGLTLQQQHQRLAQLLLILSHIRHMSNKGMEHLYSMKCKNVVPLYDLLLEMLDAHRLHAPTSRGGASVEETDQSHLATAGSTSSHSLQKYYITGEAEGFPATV
Test: ATG_ERa_TRANS: Factorial reporter gene assay (HepG2)
Assay type: cell-based
Experimental Conditions: HepG2
Measured Property: ATG_ERa_TRANS
Form rule: numeric answer, no unit written next to it.

>>> measured("CCCCC(CC)CN1C(=O)C2C3C=CC(C3)C2C1=O (stereo not shown) [row 212]")
4.328

[in] So what does the record say about ATG_ERa_TRANS for COc1ccc(C(c2ccc(OC)cc2)C(Cl)(Cl)Cl)cc1 [row 201] ?
[out] 5.569

[in] Could you tell me which ATG_ERa_TRANS is on file for CCN(CC)C(=O)C(C)Oc1cccc2ccccc12 (stereo not shown) [row 219] ?
[out] 4.337

[in] Record request: ATG_ERa_TRANS value, item CC1(C)C(C=C(Cl)Cl)C1C(=O)OCc1cccc(Oc2ccccc2)c1 (stereo not shown) [r242]
[out] 4.523

[in] Requested read-out: ATG_ERa_TRANS. Entry: CCCCC(C#N)(Cn1cncn1)c1ccc(Cl)cc1 (stereo not shown) [row 217]
[out] 4.398

[in] Request the reported ATG_ERa_TRANS associated with CCCN(CCC)c1c([N+](=O)[O-])cc(C(F)(F)F)c(N)c1[N+](=O)[O-] [r252]
[out] 4.824

[in] Which ATG_ERa_TRANS is listed for CCOc1cc(Oc2ccc(C(F)(F)F)cc2Cl)ccc1[N+](=O)[O-] [r233] ?
[out] 5.102

---

System: ABCB11
Test: CLZD_ABCB11: Change in expression of ABCB11 (primary human hepatocytes)
Assay type: cell-based
Experimental Conditions: 24 hr
Measured Property: CLZD_ABCB11_24
// print number alone

>>> measured("C=C(C)[C@H]1Cc2c(ccc3c2O[C@@H]2COc4cc(OC)c(OC)cc4[C@@H]2C3=O)O1")
5.217
>>> measured("CCc1nn(C)c(C(=O)NCc2ccc(C(C)(C)C)cc2)c1Cl")
4.551
>>> measured("C#CCOS(=O)OC1CCCCC1Oc1ccc(C(C)(C)C)cc1 (centres unmarked)")
4.813
>>> measured("COC(=O)N(OC)c1ccccc1COc1ccn(-c2ccc(Cl)cc2)n1")
5.366

# next molecule below
[in] Entry `CC(C)(C)c1ccc(CSc2cnn(C(C)(C)C)c(=O)c2Cl)cc1` : reported CLZD_ABCB11_24 = ?
[out] 5.168
